Molecular target: T1, human MSLN-R2-his protein (human, UniProt Q13421 391-486)
T1 construct: Region 2 of human mesothelin, made in HEK293E cells, His-tagged; also called human MSLN-R2 protein; hMSLN-R2-his; not shown: His tag
T1 sequence (Q13421 other isoform, or with tags, fused parts or gaps): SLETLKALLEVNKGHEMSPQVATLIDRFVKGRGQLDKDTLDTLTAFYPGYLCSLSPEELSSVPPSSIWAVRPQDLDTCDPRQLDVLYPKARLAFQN
Experiment: ELISA on coated MSLN-R2; antibody 10 nM
OD450: recorded values
measured quantity: OD450 (OD450)

S009-F8-24.14 (antibody, human IgG1, kappa, V domains shown) VH: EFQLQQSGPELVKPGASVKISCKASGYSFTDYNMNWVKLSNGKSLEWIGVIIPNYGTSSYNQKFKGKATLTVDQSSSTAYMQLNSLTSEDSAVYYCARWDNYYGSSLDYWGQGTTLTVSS VL: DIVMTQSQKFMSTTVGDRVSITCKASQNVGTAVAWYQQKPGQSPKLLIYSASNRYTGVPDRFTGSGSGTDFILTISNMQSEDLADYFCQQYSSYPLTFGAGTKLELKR ... 0.04
S009-F8-12.13 (antibody, human IgG1, kappa, V domains shown) VH: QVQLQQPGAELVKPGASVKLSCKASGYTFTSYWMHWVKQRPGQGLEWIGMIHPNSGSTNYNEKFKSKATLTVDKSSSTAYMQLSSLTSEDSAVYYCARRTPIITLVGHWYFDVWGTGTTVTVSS VL: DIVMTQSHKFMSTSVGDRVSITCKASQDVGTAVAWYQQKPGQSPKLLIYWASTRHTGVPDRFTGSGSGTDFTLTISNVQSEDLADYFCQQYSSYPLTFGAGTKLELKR ... 0.07
S009-F8-7.5 (antibody, human IgG1, kappa, V domains shown) VH: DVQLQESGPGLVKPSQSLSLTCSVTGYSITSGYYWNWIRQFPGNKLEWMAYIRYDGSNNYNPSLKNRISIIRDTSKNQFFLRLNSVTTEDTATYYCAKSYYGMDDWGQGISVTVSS VL: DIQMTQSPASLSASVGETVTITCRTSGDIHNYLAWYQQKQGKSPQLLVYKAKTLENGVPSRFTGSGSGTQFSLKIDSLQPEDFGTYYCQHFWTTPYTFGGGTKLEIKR ... 2.18
S009-F8-36.12 (antibody, human IgG1, kappa, V domains shown) VH: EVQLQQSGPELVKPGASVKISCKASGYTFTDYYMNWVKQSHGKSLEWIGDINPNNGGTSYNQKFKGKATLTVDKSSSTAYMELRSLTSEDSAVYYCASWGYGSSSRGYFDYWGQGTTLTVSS VL: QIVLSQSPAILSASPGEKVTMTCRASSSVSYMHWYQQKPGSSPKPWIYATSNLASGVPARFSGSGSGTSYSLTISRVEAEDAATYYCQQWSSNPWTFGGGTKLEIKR ... 0.04
S009-F8-9.16 (antibody, human IgG1, kappa, V domains shown) VH: EVHLQQSGPVLVKPGASVKMSCKASGYTFTDYFMNWVKQSHGKSLEWIGVINPHNGYVNYNQKFQGRATLTVDKSSSTVYMELNSLTSEDSAVYHCARSAESAWFAYWGQRTLVTVSA VL: DVLMTQTPLSLPVSLGDQVSISCRSSQSIVHVKGNTYLEWYLQKPGQSPELLIYKVSNRFSGVPDRFSGGGSGTDFTLKISRVEPEDLGVYYCFQGSHLPYTFGGGTKLEIKR ... 0.05
